- Experiment: Concentration ratio of beta-1 (EC50) to beta3 (EC50)
- Format: functional
Property Measured: Selectivity
// keep it numeric: no unit symbol after the value

Example entries and their recorded answers appear below.
C[C@H](NCCc1ccc(NCC(=O)O)c(Cl)c1Cl)[C@H](O)c1ccc(O)cc1 0.33
C[C@H](NCCc1ccc(NCC(=O)O)c(I)c1)[C@H](O)c1ccc(O)cc1 6.6
C[C@H](NCCc1ccc(NCC(=O)O)cc1Cl)[C@H](O)c1ccc(O)cc1 15
C[C@H](NCCc1cc(Cl)c(NCC(=O)O)c(Cl)c1)[C@H](O)c1ccc(O)cc1 2070
C[C@H](NCCc1ccc(NCC(=O)O)c(Cl)c1)[C@H](O)c1ccc(O)cc1 2900

stdin: Form field: reported Selectivity of C[C@H](NCCc1ccc(N(C)CC(=O)O)c(Cl)c1)[C@H](O)c1ccc(O)cc1
stdout: 2270

stdin: Also C[C@H](NCCc1ccc(NCC(=O)O)c(Br)c1)[C@H](O)c1ccc(O)cc1 ?
stdout: 14

stdin: Also C[C@H](NCCc1cc(Cl)c(NCC(=O)O)cc1Cl)[C@H](O)c1ccc(O)cc1 ?
stdout: 21

stdin: Also C[C@H](NCCc1cc(Br)c(NCC(=O)O)c(Br)c1)[C@H](O)c1ccc(O)cc1 ?
stdout: 235

stdin: Also C[C@H](NCCc1ccc(N(C)CC(=O)O)cc1)[C@H](O)c1ccc(O)cc1 ?
stdout: 65

stdin: Also C[C@H](NCCc1ccc(NCC(=O)O)cc1)[C@H](O)c1ccc(O)cc1 ?
stdout: 54
